Test system: T-47D breast
Assay overview: NCI-60 one-dose screen, 48 h
Experimental parameters: 10 µM unless noted
Compounds without any hit were thinned out: in the full panel of roughly 83,000, 20% have a hit. Activity calls are given as the source filed them. Rule for the calls: active = growth percent below 10; inactive = the rest.
Pick one: active, inactive

# Compound, Tested system, Assigned category
data = [
    ("COc1ccc([C@@H]2[C@@H](Cl)C(=O)N2c2cc(OC)c(OC)c(OC)c2)cc1C", "T-47D breast", "inactive"),
    ("COc1cc(/C=C/C(=O)c2ccc(NC(=O)CSc3nnc(-c4ccc(Cl)cc4)n3-c3ccccc3)cc2)cc(OC)c1OC", "T-47D breast", "inactive"),
]

Asked: Please share the test call associated with O=C1c2ccccc2C(=O)c2c1oc1ccc3ccccc3c21 .
Given back: inactive

Asked: Given COc1ccc(C2C=C(c3ccc(Cl)cc3)N=C3SC=CN32)cc1 (stereo unspecified) , state the outcome it received in this test.
Given back: inactive

Asked: Outcome? COC1CC(N)C2OC(c3ccccc3)OCC2O1 (stereo unspecified)
Given back: inactive

###

Test system: SR leukemia
Assay overview: NCI-60 one-dose screen, 48 h (100 = growth as untreated, 0 = no growth, -100 = all killed)
Experimental parameters: 10 µM unless noted
Protocol: Growth inhibition of the SR human tumor cell line is measured as a screen for anti-cancer activity. Cells are grown in 96 well plates and exposed to the test compound for 48 hours. Compounds are tested at a single concentration, which is 10^-5 M for most compounds. The reported endpoint is percent growth (GI% or GIPRCNT), where numbers from 0 - 100% represent growth inhibition, and numbers from -100% - 0 represent cell death. For example, a value of 40 represents 60% growth inhibition. […]
Compounds without any hit were thinned out: in the full panel of roughly 83,000, 20% have a hit. The source made the active and inactive calls. The calls were made as follows: active = growth percent below 10; inactive = the rest.
Property label: growth

# Compound, growth
rows = [
    ("COC(=O)/C=C/c1cc(OC(C)=O)c2c(c1)[C@@H](C(=O)OC)[C@H](c1ccc(OC(C)=O)c(OC(C)=O)c1)O2", "10.8% (inactive)"),
    ("Cc1ccc2cc3c(NC(=O)c4cccnc4)nn(C)c3nc2c1", "95.8% (inactive)"),
]

Short answer for O=C1OC(c2ccc(-c3ccccc3)cc2)=C/C1=C/c1c(Cl)cccc1Cl : growth was 69.6% (inactive)

Documented growth of O=C(c1ccccc1)N(CCCCl)C(=O)N(CCCCl)C(=O)c1ccccc1 : 101% (inactive)

Query COc1ccc2[nH]cc(C(c3ccc(Cl)cc3)N3CCCC3)c2c1 (stereo unspecified) yields growth of 59.9% (inactive)

###

The reader will find reported growth values listed item by item below.
Test system: NCI-H322M lung
Assay overview: NCI-60 one-dose screen, 48 h (100 = growth as untreated, 0 = no growth, -100 = all killed)
Experimental parameters: 10 µM unless noted
This is part of a sample that, as a whole, favours compounds with a hit. Of some 83,000 tested, about 20% had one in any assay. Activity calls are given as the source filed them. How the source made its calls: active means growth percent below 10; inactive means the rest.

These solved cases illustrate the format of a correct answer.
# Molecule, growth
data = [
    ("CCCc1cc2c(cc1CN(Cc1cc3c(cc1CCC)OCO3)C(=N)OCC)OCO2", "91.9% (inactive)"),
    ("O=[N+]([O-])c1ccccc1CN1CCCCC1", "106% (inactive)"),
    ("Cc1cccc(C(=O)O)n1", "108% (inactive)"),
    ("COc1ccc2[nH]cc(C(c3ccc(Cl)cc3)N3CCCC3)c2c1 (configuration not stated)", "94.3% (inactive)"),
    ("Cc1cc(C)c2c(NC(=O)Nc3ccc(Cl)c(Cl)c3)n[nH]c2n1", "91.3% (inactive)"),
    ("CCCCn1cnc(-c2cc(-c3ccccc3)cc(C(F)(F)F)c2)n1", "99.8% (inactive)"),
]

Please look at the following molecule next.
Per the record, Brc1cccc(-n2ncc3c(Nc4ccc(-c5nnc(-c6ccccc6)o5)cc4)ncnc32)c1 has growth of 104% (inactive)
